Target: hT1R1/hT1R3 umami receptor (Homo sapiens, UniProt Q7RTX0+Q7RTX1)
Construct: expressed in transfected cells; host or cells: HEK293 derivative stably expressing Gα15, clone I-17, expression induced with mifepristone
Sequence (Q7RTX1 21-841): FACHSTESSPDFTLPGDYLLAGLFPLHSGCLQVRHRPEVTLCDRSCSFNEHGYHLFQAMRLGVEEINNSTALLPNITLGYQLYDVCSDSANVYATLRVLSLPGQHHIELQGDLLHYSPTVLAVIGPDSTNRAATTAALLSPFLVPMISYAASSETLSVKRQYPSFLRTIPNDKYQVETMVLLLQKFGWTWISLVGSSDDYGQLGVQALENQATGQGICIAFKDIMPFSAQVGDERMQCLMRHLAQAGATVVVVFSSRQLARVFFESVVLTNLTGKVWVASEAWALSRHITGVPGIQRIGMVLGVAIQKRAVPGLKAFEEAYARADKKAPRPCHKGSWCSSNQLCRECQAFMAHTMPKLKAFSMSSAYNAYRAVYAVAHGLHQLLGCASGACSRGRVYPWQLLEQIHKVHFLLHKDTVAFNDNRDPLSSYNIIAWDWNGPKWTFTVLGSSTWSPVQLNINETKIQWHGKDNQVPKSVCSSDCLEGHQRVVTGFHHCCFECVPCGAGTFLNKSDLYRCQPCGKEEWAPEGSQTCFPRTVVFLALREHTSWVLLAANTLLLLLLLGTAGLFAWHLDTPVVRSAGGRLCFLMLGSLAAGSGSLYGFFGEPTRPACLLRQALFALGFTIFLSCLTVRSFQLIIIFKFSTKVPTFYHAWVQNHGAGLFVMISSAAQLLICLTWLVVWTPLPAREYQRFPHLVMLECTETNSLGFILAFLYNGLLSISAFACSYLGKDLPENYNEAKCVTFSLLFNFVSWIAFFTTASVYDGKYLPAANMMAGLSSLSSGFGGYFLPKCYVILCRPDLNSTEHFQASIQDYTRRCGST
Sequence (Q7RTX0 21-852): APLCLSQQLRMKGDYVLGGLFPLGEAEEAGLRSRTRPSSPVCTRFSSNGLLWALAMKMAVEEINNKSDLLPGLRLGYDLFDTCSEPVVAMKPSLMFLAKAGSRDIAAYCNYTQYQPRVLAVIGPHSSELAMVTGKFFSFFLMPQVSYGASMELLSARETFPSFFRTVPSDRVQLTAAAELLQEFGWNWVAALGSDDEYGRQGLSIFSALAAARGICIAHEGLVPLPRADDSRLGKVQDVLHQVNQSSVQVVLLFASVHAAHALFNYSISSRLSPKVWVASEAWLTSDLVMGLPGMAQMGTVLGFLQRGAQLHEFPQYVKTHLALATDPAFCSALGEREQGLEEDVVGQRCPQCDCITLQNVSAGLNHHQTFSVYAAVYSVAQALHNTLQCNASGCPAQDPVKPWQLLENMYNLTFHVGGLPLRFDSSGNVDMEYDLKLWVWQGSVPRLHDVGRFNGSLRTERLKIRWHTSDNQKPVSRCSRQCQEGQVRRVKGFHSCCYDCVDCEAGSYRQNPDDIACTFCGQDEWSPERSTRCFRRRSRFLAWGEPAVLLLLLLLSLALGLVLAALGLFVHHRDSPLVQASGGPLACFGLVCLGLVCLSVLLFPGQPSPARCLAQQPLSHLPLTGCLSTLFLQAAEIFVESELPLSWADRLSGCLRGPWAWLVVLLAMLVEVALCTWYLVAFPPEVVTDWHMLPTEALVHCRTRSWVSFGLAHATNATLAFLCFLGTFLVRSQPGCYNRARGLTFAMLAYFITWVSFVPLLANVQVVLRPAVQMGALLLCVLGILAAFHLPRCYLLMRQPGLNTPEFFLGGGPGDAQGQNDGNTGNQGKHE
Experiment: In vitro hT1R1/hT1R3 umami taste receptor activation assay (FLIPR, dose response)
Type: cell-based
Details: read-out: EC50 for activation of a hT1R1/hT1R3 umami receptor expressed in an HEK293 cell line
Procedure: In order to identify new savory flavoring agents and enhancers, including compounds with savory agonist and enhancer activities (dual activity), the compounds of Formula (I) were screened in primary assays and secondary assays including compound dose response and enhancement assay. […] In compound dose response, an EC50 is calculated to reflect the potency of the compound as a savory agonist or enhancer. […]
ASSAY_READOUT: log10 of EC50 (log10 of the value in µM)
Log scale reminder: EC50 in µM, then log10 taken.

Take a look at these entries with their results.
                                 smi  assay_readout  reported_measurement
0   CCCC(CCC)NC(=O)c1ccc(N(CC)CC)cc1  log10 of EC50                  0.88
1  O=C(NCCc1ccccn1)C(=O)NCc1ccccc1Cl  log10 of EC50                 -2.00
2      CCCC(CCC)NC(=O)c1ccc(O)c(C)c1  log10 of EC50                 -0.04
3    Cc1ccsc1CNC(=O)C(=O)NCCc1ccccn1  log10 of EC50                 -0.43
4      CCCC(CCC)NC(=O)/C=C/c1ccccc1F  log10 of EC50                 -0.80

Batch: log10 of EC50 for all items listed.
1. COC(=O)[C@@H](CC(C)C)NC(=O)c1ccc(F)c(C)c1
2. COC(=O)[C@@H](CC(C)C)NC(=O)c1oc2ccccc2c1C
3. CCCC(CCC)NC(=O)c1cc2c(cc1C)OCO2
4. CCC(CC)NC(=O)c1ccc(OC)c(Cl)c1
5. CCCC(CCC)NC(=O)Nc1ccc(OC)cc1OC

### Response
1. -0.49
2. 0.07
3. -0.96
4. -0.25
5. -0.01
